Experiment: Stability in minipig urine
Format: in vitro ADME
Conditions: freshly collected minipig urine, minipig urine spiked at 1, 3, and 5 μg/mL, 37° C.
test readout: recovery at 6 h

q: // query recovery at 6 h value for entry `COc1cc(OC)cc(N(CCNC(C)C)c2ccc3ncc(-c4cnn(C)c4)nc3c2)c1`
a: 92 to 93%

* * *

Assay: in vitro
Conditions: rat, bladder tissue
test readout: fraction unbound
Give the value as a plain number.

q: # fraction unbound lookup, item COc1cc(OC)cc(N(CCNC(C)C)c2ccc3ncc(-c4cnn(C)c4)nc3c2)c1 [Erdafitinib]
a: 0.33

* * *

Assay: in vitro
Conditions: human, bladder tissue
test readout: fraction unbound
Would you mind answering with just the numeric figure?

q: Requested read-out: fraction unbound. Entry: `COc1cc(OC)cc(N(CCNC(C)C)c2ccc3ncc(-c4cnn(C)c4)nc3c2)c1`
a: 0.39
